- assay system: T1, Recombinant Human TNF-α/TNFSF1A (human, UniProt P01375 77-233)
- T1 construct: Bought reagent for Biacore; also called huTNFα
- T1 sequence (P01375 77-233 limits assumed): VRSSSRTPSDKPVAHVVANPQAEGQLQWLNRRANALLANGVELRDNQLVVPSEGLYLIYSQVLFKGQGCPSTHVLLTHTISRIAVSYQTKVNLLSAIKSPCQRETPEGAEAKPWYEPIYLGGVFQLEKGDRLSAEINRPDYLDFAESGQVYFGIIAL
- protocol description: Biacore SPR
readout name: koff

Entry AB218 (antibody, human IgG1, kappa, V domains shown, Parent anti-TNF antibody; also called AB218VH) VH: EVQLVESGGGLIQPGGSLRLSCAASGFTVSRNYMSWVRQAPGKGLEWVSVIYSGDRTYYADSVKGRFTISRDNSKNTLYLQMNSLRAEDTAVYYCARGEGGFDYWGQGTLVTVSS VL: EIVMTQSPATLSVSPGERATLSCRASQSVSSNLAWYQQKPGQAPRLLIHGASIRATGLPARFSGSGSGTEFTLTISSLQSEDFAVYYCQQYNYWWTFGQGTKVEIKR has what koff?
5.15e-05 s⁻¹

Let us now turn to AB213 (antibody, human IgG1, kappa, V domains shown, Parent anti-TNF antibody; also called AB213VH) VH: QVQLKESGPGLVAPSQSLSITCTVSGFSLTDYGVNWVRQPPGKGLEWLGMIWGDGSTDYDSTLKSRLSISKDNSKSQIFLKMNSLQTDDTARYYCAREWHHGPVAYWGQGTLVTVSA VL: DIVMTQSHKFMSTTVGDRVSITCKASQAVSSAVAWYQQKPGQSPKLLIYWASTRHTGVPDRFTGSGSVTDFTLTIHNLQAEDLALYYCQQHYSTPFTFGSGTKLEIKR
0.000108 s⁻¹

Let us now turn to AB214 (antibody, human IgG1, kappa, V domains shown, Parent anti-TNF antibody; also called AB214VH) VH: EVKLEESGGGLVQPGGSMKLSCVASGFIFSNHWMNWVRQSPEKGLEWVAEIRSKSINSATHYAESVKGRFTISRDDSKSAVYLQMTDLRTEDTGVYYCSRNYYGSTYDYWGQGTTLTVSS VL: DILLTQSPAILSVSPGERVSFSCRASQFVGSSIHWYQQRTNGSPRLLIKYASESMSGIPSRFSGSGSGTDFTLSINTVESEDIADYYCQESHSWPFTFGSGTNLEVKR
0.000291 s⁻¹

Let us now turn to AB217 (antibody, human IgG1, kappa, V domains shown, Parent anti-TNF antibody; also called AB217VH) VH: QVQLVESGGGVVQPGRSLRLSCAASGFTFSSYDMHWVRQAPGKGLEWVAVIWSDGSIKYYADSVKGRFTISRDNSKNTLYLQMNSLRAEDTAVYYCAREVESAMGGFYYNGMDVWGQGTTVTVSS VL: DIQMTQSPSSLSASVGDRVTITCRASQGIRIDLGWYQQKPGKAPKRLIYAASTLQSGVPSRFSGSGSGTEFIFTISSLQPEDFASYYCLQHKSYPLTFGGGTKVEIKR
5.04e-05 s⁻¹

Let us now turn to AB215 (antibody, human IgG1, kappa, V domains shown, Parent anti-TNF antibody; also called AB215VH) VH: QVQLVESGGGVVQPGRSLRLSCAASGFTFSSYAMHWVRQAPGNGLEWVAFMSYDGSNKYAKDSVKGRFTISRDNSKNTLYLQMNSLRAEDTAVYYCARDRGIAAGGNYYYYGMDVWGQGTTVTVSS VL: EIVLTQSPATLSLSPGERATLSCRASQSVYSYLAWYQQKPGQAPRLLIYDASNRATGIPARFSGSGSGTDFTLTISSLEPEDFAVYYCQQRSNWPPFTFGPGTKVDIKR
0.000272 s⁻¹
